Origin of measurements: ChEMBL document CHEMBL3988442

IC50 values for the molecules below.
Target: Histidine--tRNA ligase (Leishmania infantum, UniProt A4I591)
Sequence (A4I591 whole entry): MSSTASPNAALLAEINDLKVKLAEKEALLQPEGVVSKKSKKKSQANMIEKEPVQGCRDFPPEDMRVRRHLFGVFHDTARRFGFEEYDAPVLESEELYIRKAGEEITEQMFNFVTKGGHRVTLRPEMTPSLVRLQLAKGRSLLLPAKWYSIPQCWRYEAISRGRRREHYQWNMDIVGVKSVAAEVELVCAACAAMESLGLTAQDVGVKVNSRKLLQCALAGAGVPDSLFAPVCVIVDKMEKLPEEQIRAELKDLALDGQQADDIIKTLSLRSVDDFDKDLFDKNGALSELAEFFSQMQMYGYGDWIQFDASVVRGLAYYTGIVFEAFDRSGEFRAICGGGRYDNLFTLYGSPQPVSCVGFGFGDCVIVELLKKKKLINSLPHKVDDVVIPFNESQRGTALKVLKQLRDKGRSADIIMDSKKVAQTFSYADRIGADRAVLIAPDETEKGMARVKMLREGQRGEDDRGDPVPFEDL
Test: Leishmania infantum Histidine tRNA synthetase (LdHisRS)
recorded endpoint: IC50

>>> df
                                   molecule  recorded_endpoint  assay_value
0       O=c1c2cnc(N3CCOCC3)nc2ccn1-c1ccccc1               IC50     > 100 µM
1         CCCN1CCC(Cc2nn3c(C(C)C)nnc3s2)CC1               IC50     > 100 µM
2  COc1ccc(C2SC(C)=Nc3c2c(=O)[nH]n3C2CCCC2)cc1O (stereo unspecified)               IC50     > 100 µM
3  CN(C)CCn1c(=O)oc2ccc(NC(=O)C3CCCO3)cc21 (stereo unspecified)               IC50     > 100 µM
4    Cc1c(Cl)cccc1NC(=O)Cn1cc(C(=O)O)ccc1=O               IC50     > 100 µM
5           Cn1ccnc1-c1cn(CCCc2csc(N)n2)nn1               IC50     > 100 µM
